test target: Vitamin K epoxide reductase complex subunit 1 (Bos taurus)
protocol notes: Apparent kinetic constant for Vitamin K epoxide reductase
Label key: rule met means Ki under 40 µM; rule not met means Ki of 40 µM or more.

molecule="C/C(=C\\CC12OC1(C(F)F)C(=O)c1ccccc1C2=O)CCCC(C)CCCC(C)CCCC(C)C (stereo not drawn)" test_target="Vitamin K epoxide reductase complex subunit 1 (Bos taurus)" qualitative_label="rule not met"

Exercise: Please let me know if C/C(=C\CC12OC1(C=O)C(=O)c1ccccc1C2=O)CCCC(C)CCCC(C)CCCC(C)C (stereo not drawn) shows Ki below 40 µM.
Key: rule met

Exercise: Please let me know if CC(C)CCCC(C)CCCC(C)CCCC(C)CC(F)C12OC1(C)C(=O)c1ccccc1C2=O (stereo not drawn) shows Ki below 40 µM.
Key: rule not met

Exercise: Please let me know if C/C(=C\CC12OC1(CO)C(=O)c1ccccc1C2=O)CCCC(C)CCCC(C)CCCC(C)C (stereo not drawn) shows Ki below 40 µM.
Key: rule met

----------
test target: Vitamin K epoxide reductase complex subunit 1 (Bos taurus, UniProt Q6B4J2)
Sequence (Q6B4J2 whole entry, one chain of several): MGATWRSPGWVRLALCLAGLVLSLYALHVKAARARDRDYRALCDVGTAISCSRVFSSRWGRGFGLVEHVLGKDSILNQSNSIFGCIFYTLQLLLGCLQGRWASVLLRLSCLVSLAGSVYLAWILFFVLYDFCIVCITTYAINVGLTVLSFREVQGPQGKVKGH
protocol notes: Apparent kinetic constant for Vitamin K epoxide reductase
reported property: Ki (µM)
Your answer should be a plain number; it is taken to be in µM.

compound="C/C(=C\\CC12OC1(CCl)C(=O)c1ccccc1C2=O)CCCC(C)CCCC(C)CCCC(C)C (centres undefined)" reported_property=Ki assay_result=74
compound="C/C(=C\\C(O)C12OC1(C)C(=O)c1ccccc1C2=O)CCCC(C)CCCC(C)CCCC(C)C (centres undefined)" reported_property=Ki assay_result=43
compound="C/C(=C\\CC12OC1(CF)C(=O)c1ccccc1C2=O)CCCC(C)CCCC(C)CCCC(C)C (centres undefined)" reported_property=Ki assay_result=17

Now examine the next entry.
Entry CC(C)CCCC(C)CCCC(C)CCCC(C)CC(O)C12OC1(C)C(=O)c1ccccc1C2=O (centres undefined) , Ki reported as 63
